Catalogue of self-cleavage readings, one per entry.
B1: HDV Ribozyme (parent)
chain: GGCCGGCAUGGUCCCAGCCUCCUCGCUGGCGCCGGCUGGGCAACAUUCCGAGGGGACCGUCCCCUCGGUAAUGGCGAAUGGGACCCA

# Variants of: B1
# protocol notes: self-cleavage, relative activity (ratio to wild type); higher = more cleavage; co-transcriptional
Please give only the number in your answer, with no unit.

Some variants with known self-cleavage results, for comparison:
residue change | self-cleavage
G28U A78U | 0.0723
C48U G50U | 0.742
G17U U20C | 0.0573
G52C A78G | 0.787
C49U C85A | 1.17
G5A A78C | 0.106
G2U G68U | 0.134
G5U C57G | 0.256
G17U C85U | 0.614
G28C G29C | 0.0504

Qu. Using the record for G80C C85G , report its self-cleavage.
Ans. 0.205

Qu. Which measured self-cleavage value corresponds to U47A A71G ?
Ans. 1.03

Qu. Given U27G C49U , state its recorded self-cleavage.
Ans. 0.957

Qu. # self-cleavage lookup, item C26A G54C
Ans. 1

Qu. Quick one: self-cleavage of G29U G39C ?
Ans. 0.0302

Qu. Please look up its self-cleavage: G6A C62A
Ans. 0.543

Qu. // self-cleavage lookup, key: G31A G67U
Ans. 0.439
